test_readout: melting point

(Q) Identify measured melting point corresponding to c1ccc(-c2ncc(CCN3CCN(c4ncccn4)CC3)[nH]2)cc1 [Compound 143]
(A) 142 to 144 °C

(Q) Identify measured melting point corresponding to C[C@@H]1CN(c2ncccn2)C[C@H](C)N1Cc1cnc(-c2ccccc2)[nH]1 [Compound 140]
(A) 130 to 135 °C

(Q) Identify measured melting point corresponding to c1ccc(-c2nc(-c3ccccc3)c(CN3CCN(c4ncccn4)CC3)[nH]2)cc1 [Compound 132]
(A) 221 to 225 °C

(Q) Identify measured melting point corresponding to O=C(/C=C/c1cnc(-c2ccccc2)[nH]1)N1CCN(c2ncccn2)CC1 [Compound 119]
(A) 235 to 236 °C

---

Where a name gives a salt, the structure may show the parent alone.
melting point reference

O=C(CCc1cnc(-c2ccccc2)[nH]1)N1CCN(c2ncccn2)CC1	143 to 148 °C

(Q) Identify measured melting point corresponding to `O=C(c1cnc(-c2ccccc2)[nH]1)N1CCN(c2ncccn2)CC1`
(A) 231 to 232 °C

(Q) Identify measured melting point corresponding to COc1ccc(-c2ncc(CN3CCC(c4ccccc4)CC3)[nH]2)cc1 (as salt: hydrochloride) [Compound 47, dihydrochloride]
(A) 196 to 199 °C

(Q) Identify measured melting point corresponding to COc1cccc(-c2ncc(CN3CCC(c4ccccc4)CC3)[nH]2)c1 (as salt: hydrochloride) [Compound 50, dihydrochloride]
(A) 114 to 117 °C

(Q) Identify measured melting point corresponding to `c1cnc(N2CCN(Cc3cnc(C4CCCCC4)[nH]3)CC2)nc1`
(A) 210 to 213 °C

(Q) Identify measured melting point corresponding to Cc1ccc(Cl)cc1N1CCN(Cc2cnc(-c3ccccc3)[nH]2)CC1 (as salt: hydrochloride) [Compound 60, dihydrochloride]
(A) 142 to 145 °C

(Q) Identify measured melting point corresponding to COc1ccc(Br)cc1-c1ncc(CN(C)C)[nH]1 (as salt: hydrochloride) [Compound 1, dihydrochloride]
(A) 242 to 243 °C

---

Structures can show the parent of a compound that is named as a salt.
melting point reference

c1ccc(CC2CCN(Cc3ncc(-c4ccccc4)[nH]3)CC2)cc1 (as salt: fumarate) [Compound 77]	155 to 157 °C
c1ccc(-c2nc(CN3CCC(c4ccccc4)CC3)c[nH]2)cc1 (as salt: hydrochloride) [Compound 26, dihydrochloride]	238 to 240 °C

(Q) Identify measured melting point corresponding to COc1ccccc1N1CCN(Cc2cnc(-c3ccc(F)cc3)[nH]2)CC1 [Compound 20]
(A) 95 to 97 °C

(Q) Identify measured melting point corresponding to CCc1ccc(OC)c(-c2ncc(CN3CCN(c4ccccc4OC)CC3)[nH]2)c1 (as salt: hydrochloride) [Compound 55, dihydrochloride]
(A) 61 to 64 °C

(Q) Identify measured melting point corresponding to Fc1ccnc(N2CCN(Cc3c[nH]c(-c4ccccc4)n3)CC2)n1 (as salt: hydrochloride) [Compound 58, dihydrochloride]
(A) 188 to 190 °C

(Q) Identify measured melting point corresponding to Fc1ccc(N2CCN(Cc3cnc(-c4ccccc4)[nH]3)CC2)cc1 (as salt: hydrochloride) [Compound 56, dihydrochloride]
(A) 64 to 68 °C

(Q) Identify measured melting point corresponding to CC(c1cnc(-c2ccccc2)[nH]1)N1CCC(Cc2ccccc2)CC1 (stereo not shown) (as salt: hydrochloride) [Compound 91, dihydrochloride salt]
(A) 169 to 171 °C

---

Where a name gives a salt, the structure may show the parent alone.
# human dopamine D4 receptor subtype (Homo sapiens, UniProt P21917): pKi values follow
# Sequence (P21917 whole entry): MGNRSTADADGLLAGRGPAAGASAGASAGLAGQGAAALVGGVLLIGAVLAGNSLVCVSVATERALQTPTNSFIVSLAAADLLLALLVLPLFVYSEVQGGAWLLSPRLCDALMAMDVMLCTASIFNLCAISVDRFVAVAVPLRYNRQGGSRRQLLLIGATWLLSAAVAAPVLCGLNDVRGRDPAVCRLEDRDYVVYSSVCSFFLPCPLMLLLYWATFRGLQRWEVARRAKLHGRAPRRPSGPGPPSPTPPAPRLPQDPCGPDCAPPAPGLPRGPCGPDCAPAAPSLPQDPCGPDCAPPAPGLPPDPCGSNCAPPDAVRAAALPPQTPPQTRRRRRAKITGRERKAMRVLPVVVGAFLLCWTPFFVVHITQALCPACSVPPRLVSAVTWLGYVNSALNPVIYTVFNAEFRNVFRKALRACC
pKi is defined as minus the log10 of a concentration measured in mol/L.

c1ccc(-c2ncc(CN3CCN(c4ccccc4)CC3)[nH]2)cc1	8.30

(Q) State, for human dopamine D4 receptor subtype (Homo sapiens, UniProt P21917), measured pKi of the compound listed here: c1ccc(-c2ncc(CN3CCN(c4ncccn4)CC3)[nH]2)cc1 [Compound 23, dihydrochloride]
(A) 8.57

---

Where a name gives a salt, the structure may show the parent alone.
test_readout: melting point

COc1ccc(Cl)cc1-c1ncc(CN2CCN(c3ccccc3OC)CC2)[nH]1 (as salt: hydrochloride) [Compound 43, dihydrochloride]	138 to 143 °C

(Q) Identify measured melting point corresponding to Ic1nc(-c2ccccc2)[nH]c1CN1CCN(c2ncccn2)CC1 (as salt: hydroiodid) [Compound 90, hydroiodide salt]
(A) 196 to 199 °C

(Q) Identify measured melting point corresponding to c1ccc(CC2CCN(Cc3cnc(-c4ccccc4)[nH]3)CC2)cc1 (as salt: hydrochloride) [Compound 25, dihydrochloride]
(A) 234 to 236 °C

---

melting point reference
Where a name gives a salt, the structure may show the parent alone.

Recorded melting point, per entry:
c1ccc(-c2ncc(CCCN3CCN(c4ncccn4)CC3)[nH]2)cc1	133 to 135 °C
Fc1ccccc1-c1nc(CN2CCC(c3ccccc3)CC2)c[nH]1 (as salt: maleate)	142 to 144 °C
c1ccc(CC2CCN(Cc3cnc(-c4cccc5ccccc45)[nH]3)CC2)cc1	81 to 83 °C

For the next question, use this compound.
(Q) Identify measured melting point corresponding to COc1ccccc1N1CCN(Cc2cnc(-c3cccc(Cl)c3)[nH]2)CC1 (as salt: hydrochloride) [Compound 22, dihydrochloride]
(A) 198 to 199 °C
